# Tested on: HDMB03 (HDMBO3) group 3 medulloblastoma cells
# TEST DESCRIPTION: CellTiter-Glo dose-response growth assay
# Format: cell-based
# TEST CONTEXT: Homo sapiens, HD-MB03; HDMBO3 G3MB cell growth; read-out: IC50 (nM) HDMBO3
EXPERIMENTAL READOUT: IC50 (nM)

* COC1CCC(n2c(C3CCCC(=O)N3c3ccccc3)nc3cc(-c4c(C)noc4C)ccc32)CC1 (stereo not drawn) | 108
* COC1CCC(n2c(C3CCCC(=O)N3c3cccc(C(C)(C)C)c3)nc3cc(-c4c(C)noc4C)ccc32)CC1 (stereo not drawn) | 558
* COC1CCC(n2c(C3CCCC(=O)N3c3cc(C(F)(F)F)cc(C(F)(F)F)c3)nc3cc(-c4c(C)noc4C)ccc32)CC1 (stereo not drawn) | 271
* CO[C@H]1CC[C@H](n2c([C@@H]3CCCC(=O)N3c3ccc(F)c(F)c3)nc3cc(-c4c(C)noc4C)ccc32)CC1 | 82
* COC1CCC(n2c(C3CCCC(=O)N3c3ccc4c(c3)OCCO4)nc3cc(-c4c(C)noc4C)ccc32)CC1 (stereo not drawn) | 452

* * *

# ASSAY SYSTEM: CBP bromodomain (Homo sapiens, UniProt Q92793)
# Construct: CBP (residues 1081-1197); 6xHis (cleaved yes); host or cells: E. coli BL21 (DE3) RIL
# Sequence (Q92793 1081-1197): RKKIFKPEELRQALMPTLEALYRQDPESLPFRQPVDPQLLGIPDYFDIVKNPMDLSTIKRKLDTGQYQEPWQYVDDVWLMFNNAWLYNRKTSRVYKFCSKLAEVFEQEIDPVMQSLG
# TEST DESCRIPTION: Isothermal titration calorimetry (ITC)
# Type: binding
# TEST CONTEXT: single ITC experiment, data fit ± SEM
EXPERIMENTAL READOUT: Kd (nM)

* Cc1noc(C)c1-c1ccc2c(c1)nc(C1CCCC(=O)N1)n2C1CCC(NC(=O)OC(C)(C)C)CC1 (stereo not shown) | 1550

* * *

# ASSAY SYSTEM: CBP bromodomain (Homo sapiens, UniProt Q92793)
# Construct: CBP (residues 1081-1197); 6xHis (cleaved yes); host or cells: E. coli BL21 (DE3) RIL
# TEST DESCRIPTION: Differential scanning fluorimetry (DSF) thermal shift
# Assay type: binding
# TEST CONTEXT: DSF; 5 μM protein, 100 μM compound; three independent experiments, average ± SD
EXPERIMENTAL READOUT: ∆Tm (°C) CBP

- COC1CCC(n2c(C3CCCC(=O)N3c3cccc(C(F)F)c3)nc3cc(-c4c(C)noc4C)ccc32)CC1 (stereo not shown) [Compound 3]: 15.7
- COC1CCC(n2c(C3CCCC(=O)N3)nc3cc(-c4c(C)noc4C)ccc32)CC1 (stereo not shown) [Compound 2]: 5.6
- Cc1noc(C)c1-c1ccc2c(c1)nc(C1CCCC(=O)N1)n2C1CCC(NC(=O)OC(C)(C)C)CC1 (stereo not shown) [Compound 1]: 7.8
- COC1CCC(n2c(C3CCCC(=O)N3c3ccccc3)nc3cc(-c4c(C)noc4C)ccc32)CC1 (stereo not shown) [Compound 5]: 14.6

* * *

ΔTm (°C) EP300 overview
# ASSAY SYSTEM: EP300 bromodomain (Homo sapiens, UniProt Q09472)
# Construct: 6xHis (cleaved yes); host or cells: E. coli BL21 (DE3) RIL
# Sequence (Q09472 1048-1161): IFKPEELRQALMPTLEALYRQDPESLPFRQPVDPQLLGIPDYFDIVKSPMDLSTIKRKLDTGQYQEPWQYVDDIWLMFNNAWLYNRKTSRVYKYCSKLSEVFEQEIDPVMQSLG
# TEST DESCRIPTION: Differential scanning fluorimetry (DSF) thermal shift
# Assay type: binding
# TEST CONTEXT: Figure 3B, DSF, EP300
EXPERIMENTAL READOUT: ΔTm (°C) EP300

* COC1CCC(n2c(C3CCCC(=O)N3)nc3cc(-c4c(C)noc4C)ccc32)CC1 (stereo not shown) | 5.6
* COC1CCC(n2c(C3CCCC(=O)N3c3cccc(C(F)F)c3)nc3cc(-c4c(C)noc4C)ccc32)CC1 (stereo not shown) | 15.2
* CO[C@H]1CC[C@H](n2c([C@@H]3CCCC(=O)N3c3ccc(F)c(F)c3)nc3cc(-c4c(C)noc4C)ccc32)CC1 | 18.3
* COC1CCC(n2c(C3CCCC(=O)N3c3cccc(C(C)(C)C)c3)nc3cc(-c4c(C)noc4C)ccc32)CC1 (stereo not shown) | 14.3
* COC1CCC(n2c(C3CCCC(=O)N3c3ccc4c(c3)OCCO4)nc3cc(-c4c(C)noc4C)ccc32)CC1 (stereo not shown) | 13.5
* COC1CCC(n2c(C3CCCC(=O)N3c3ccccc3)nc3cc(-c4c(C)noc4C)ccc32)CC1 (stereo not shown) | 14.8
* COC1CCC(n2c(C3CCCC(=O)N3c3cc(C(F)(F)F)cc(C(F)(F)F)c3)nc3cc(-c4c(C)noc4C)ccc32)CC1 (stereo not shown) | 9.2
